Please provide measured GI50 for the entries that follow.
Test system: EKVX NSCLC
protocol.description: NCI tumour cell line growth inhibition, 48 h

Consider the compound NC(=O)c1ncn(C2OC(CO)C(O)C2O)n1 (stereo unspecified) and give its measured GI50. 70.2 µM

Would you kindly repeat that for CCCCC(SC(=S)N(CC)CC)C(=O)Nc1nc(CC(=O)OCC)cs1 (stereo unspecified) ? 45.7 µM

Would you kindly repeat that for COc1ccc(S(=O)(=O)Nc2cc(/C=C\c3cc(OC)c(OC)c(OC)c3)cc(OC)c2OC)cc1OC ? 3.6 µM

Would you kindly repeat that for Cc1cc(N2CCOCC2)nc(N(CCCNc2ccnc3cc(Cl)ccc23)Cc2ccc3c(c2)OCO3)n1 ? 2.29 µM

Would you kindly repeat that for CCCCCCCCCCCCCCCCCC(=O)[O][Sn]([CH2]CCC)([CH2]CCC)[CH2]CCC ? 0.0713 µM

Would you kindly repeat that for N#Cc1cc(-c2ccccc2)[nH]c1-c1nccc2ccccc12 ? 5.86 µM

This collection of values is drawn from PubChem BioAssay (NCI).
